Origin of measurements: patent US9718825B2

target: recombinant human SGK-1 enzyme (Homo sapiens, UniProt O00141); test: Enzymatic activity assay: SGK-1 substrate peptide phosphorylation (Caliper lab-chip mobility shift); format: biochemical; settings: peptide substrate 1 μM, ATP 10 μM, 60 min at 37° C., read-out: IC50 values for inhibition of SGK-1 enzymatic activity
Sequence (O00141 whole entry, looked up): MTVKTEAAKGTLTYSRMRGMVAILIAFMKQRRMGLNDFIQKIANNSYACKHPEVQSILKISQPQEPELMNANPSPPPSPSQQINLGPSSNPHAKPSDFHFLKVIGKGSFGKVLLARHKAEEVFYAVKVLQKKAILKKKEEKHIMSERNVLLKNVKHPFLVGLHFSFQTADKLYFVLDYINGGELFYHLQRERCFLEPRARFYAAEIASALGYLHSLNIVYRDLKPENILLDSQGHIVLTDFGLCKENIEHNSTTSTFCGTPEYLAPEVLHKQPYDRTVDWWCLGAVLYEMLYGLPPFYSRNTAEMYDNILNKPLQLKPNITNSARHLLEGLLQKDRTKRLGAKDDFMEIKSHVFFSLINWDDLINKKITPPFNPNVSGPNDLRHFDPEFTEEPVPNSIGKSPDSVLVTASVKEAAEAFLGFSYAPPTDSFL
Rule: measured IC50 below 10 nM gets satisfied; anything equal to or greater than 10 nM gets not satisfied.

- Cc1ccc(Cl)c(S(=O)(=O)Nc2ccc(-c3cc4[nH]nc(C)c4c(OC4CC(C)(C)NC(C)(C)C4)n3)cc2)c1: satisfied
- Cc1n[nH]c2cc(-c3ccc(NS(=O)(=O)c4cc(F)cc(F)c4Cl)cc3)nc(OC3CCN(C4CCC4)CC3)c12: not satisfied
- Cc1n[nH]c2cc(-c3ccc(NS(=O)(=O)c4cc(Cl)ccc4F)cc3)nc(Oc3ccc(N(C)C)nc3)c12: not satisfied
- Nc1n[nH]c2cc(-c3ccc(NS(=O)(=O)c4cc(Cl)sc4Cl)cc3)ncc12: not satisfied
- COCCc1nc(-c2ccc(NS(=O)(=O)c3cc(Cl)ccc3F)cc2)nc2[nH]nc(N)c12 [Example 525]: not satisfied
- Cc1nc(-c2ccc(NS(=O)(=O)c3cc(Cl)ccc3Cl)cc2)nc2[nH]ncc12: satisfied
